Each recorded value in this set is attributed to the supplement of paper PMC9112550.

- System: Escherichia coli TOP10;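 further: peptides expressed intracellularly from a pBAD plasmid library in pooled LB shake-flask culture, induced with 0.3% L-arabinose, DNA abundance read by NGS, three biological replicates, DESeq2 with apeglm shrinkage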
- assay-info: shrunken log2 fold change of peptide-encoding DNA abundance (4.5 h post-induction vs induction); higher = less antimicrobial activity (less host growth inhibition)
- measurement-parameters: time post-induction: 4.5 h; library: site-saturation at positions 5, 18, 19, 20
endpoint-name: shrunken log2 fold change

Recorded shrunken log2 fold change, per entry:
{"sequence-string": "RRIRQRPPRLPRPRPRPSNMPRP", "endpoint-name": "shrunken log2 fold change", "meas-value": -0.459}
{"sequence-string": "RRIRSRPPRLPRPRPRPLQIPRP", "endpoint-name": "shrunken log2 fold change", "meas-value": 0.0322}
{"sequence-string": "RRIRWRPPRLPRPRPRPYPIPRP", "endpoint-name": "shrunken log2 fold change", "meas-value": 0.0625}

Quick batch: shrunken log2 fold change for everything below.
1. RRIRSRPPRLPRPRPRPFKEPRP
2. RRIRKRPPRLPRPRPRPHWEPRP
3. RRIRCRPPRLPRPRPRPLRGPRP
4. RRIRHRPPRLPRPRPRPVLAPRP
5. RRIRIRPPRLPRPRPRPWMRPRP

Response line:
[-0.117, -0.102, 0.835, 0.126, -0.37]
